Target: (VIBVN)NAT (arylamine N-acetyltransferase)
Experiment summary: DTNB assay of AcCoA-dependent acetylation, absorbance at […] nm
Measured attribute: IC50 (µM)
Give the value, in units of µM, as a plain number.

Req: Tell me IC50 reported for CCCS(=O)(=O)c1c(S(=O)(=O)CCC)c2ccccn2c1C(=O)N/N=C/c1cc(OC)ccc1O [AG-205-36710025]
Resp: 33.3
